These entries and their values trace back to the supplement of paper PMC10065799.

Target: Fes (UniProt P07332)
Sequence (P07332 whole entry, looked up): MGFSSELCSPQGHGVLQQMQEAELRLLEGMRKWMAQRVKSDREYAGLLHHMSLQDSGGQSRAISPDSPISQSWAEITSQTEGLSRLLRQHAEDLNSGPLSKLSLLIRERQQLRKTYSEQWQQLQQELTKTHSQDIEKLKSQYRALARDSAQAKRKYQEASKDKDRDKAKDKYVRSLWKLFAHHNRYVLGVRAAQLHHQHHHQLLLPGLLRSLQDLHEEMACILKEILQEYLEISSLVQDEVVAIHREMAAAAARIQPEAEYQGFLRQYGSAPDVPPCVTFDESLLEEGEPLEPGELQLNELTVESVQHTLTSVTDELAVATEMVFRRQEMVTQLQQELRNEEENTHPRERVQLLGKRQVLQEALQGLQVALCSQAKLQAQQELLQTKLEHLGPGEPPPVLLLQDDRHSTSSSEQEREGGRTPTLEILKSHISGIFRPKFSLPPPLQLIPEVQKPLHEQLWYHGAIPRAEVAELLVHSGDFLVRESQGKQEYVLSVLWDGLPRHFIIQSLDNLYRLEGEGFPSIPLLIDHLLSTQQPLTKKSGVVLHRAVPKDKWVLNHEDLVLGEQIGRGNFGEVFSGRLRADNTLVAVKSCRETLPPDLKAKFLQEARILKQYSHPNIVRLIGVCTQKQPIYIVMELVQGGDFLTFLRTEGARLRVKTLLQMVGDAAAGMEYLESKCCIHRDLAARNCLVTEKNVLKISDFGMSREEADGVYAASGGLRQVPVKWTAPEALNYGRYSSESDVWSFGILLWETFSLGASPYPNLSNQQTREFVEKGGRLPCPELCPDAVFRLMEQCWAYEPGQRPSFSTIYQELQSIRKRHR
Test: phosphorylation enrichment, bacterial display (enrichment ratio); higher = better substrate or ligand; peptides without Tyr show the background;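 also: 11-residue human phosphosite peptides and single-mutation variants displayed on the E. coli surface, counted by deep sequencing, each peptide's frequency after selection divided by its frequency in the unselected input library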;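 also: frequency after pTyr selection over input frequency; kinase dosed for 20-30% of maximal phosphorylation in three min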
Property measured: phosphorylation enrichment
Respond with the number and no other words.

For orientation, consider the following solved cases.
Just so you know, measured phosphorylation enrichment for TDIVAYSGWVQ [SPTBN2_Y477_R480W] came out at 1.02

Just so you know, measured phosphorylation enrichment for VFLGAYDRFLP [SLC22A5_Y486_YF] came out at 1.02

Just so you know, measured phosphorylation enrichment for EVDGLYREAPI [MYL12B_Y143_E141G] came out at 0.976

Just so you know, measured phosphorylation enrichment for RRNTYYASIAK [ACADM_Y353] came out at 0.889

More entries:
Just so you know, measured phosphorylation enrichment for HYECKYVINAI [MAOA_Y268] came out at 1.61

Just so you know, measured phosphorylation enrichment for PLQHVYKIGGI [EEF1A2_Y254_D252H] came out at 1.06

Just so you know, measured phosphorylation enrichment for QAYSWYQHQRA [NDST1_Y714_R709Q] came out at 1.01
